target: IMP-1 (Serratia marcescens); assay: biochemical; type: biochemical; conditions: IMP-1 enzyme, CCF2-FA fluorescence assay; read-out: IMP-1 IC50
Sequence (P52699 whole entry, looked up): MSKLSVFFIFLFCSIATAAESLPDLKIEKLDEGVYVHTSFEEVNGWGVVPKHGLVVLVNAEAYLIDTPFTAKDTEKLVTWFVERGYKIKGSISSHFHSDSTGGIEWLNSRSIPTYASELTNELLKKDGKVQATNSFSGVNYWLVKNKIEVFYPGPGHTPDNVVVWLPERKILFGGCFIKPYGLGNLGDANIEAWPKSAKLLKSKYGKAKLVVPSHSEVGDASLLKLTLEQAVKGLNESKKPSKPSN
propertyName: pIC50
Schema: pIC50 number; meaning minus log10 of the concentration expressed in molar units.

// below: answered compounds
Cc1ccc(-c2cccc(S(N)(=O)=O)c2-c2nnn[nH]2)nc1 [Example 398]	5.92
CN(CCC(=O)O)Cc1ccc(-c2cccc(S(N)(=O)=O)c2-c2nnn[nH]2)cc1 [Example 361]	6.86

Exercise: Field request: pIC50 | item: CS(=O)(=O)Nc1ccc(-c2ccc(Br)c(S(N)(=O)=O)c2-c2nn[nH]n2)cc1 [Example 270]
Solution: 8.31

Exercise: Please do the same for NS(=O)(=O)c1cccc(-c2ccc(CN3CCCC3CO)cc2)c1-c1nnn[nH]1 (stereo not shown) [Example 395] as well.
Solution: 6.65

Exercise: Please do the same for N=C(N)NC1CCC(CCc2ccc(-c3ccc(C4CCN(C(=N)N)CC4)cc3)c(-c3nn[nH]n3)c2S(N)(=O)=O)CC1 (stereo not shown) [Example 472] as well.
Solution: 9.18

Exercise: Please do the same for NS(=O)(=O)c1c(C(F)(F)F)ccc(-c2ccnc3ccccc23)c1-c1nn[nH]n1 [Example 273] as well.
Solution: 8.49

Exercise: Please do the same for NS(=O)(=O)c1cccc(-c2ccc(C3=CCNC3)cc2)c1-c1nn[nH]n1 [Example 285] as well.
Solution: 7.60

Exercise: Please do the same for NS(=O)(=O)c1cccc(-c2ccc(CNCCO)cc2)c1-c1nnn[nH]1 [Example 390] as well.
Solution: 6.32

Exercise: Please do the same for C[C@@H](O)[C@H](NCc1ccc(-c2cccc(S(N)(=O)=O)c2-c2nnn[nH]2)cc1)C(=O)O [Example 357] as well.
Solution: 6.74

Exercise: Please do the same for NS(=O)(=O)c1c(CC[C@H]2CC[C@@H](N)CC2)ccc(-c2ccc(C3CCNCC3)cc2)c1-c1nn[nH]n1 [Example 462] as well.
Solution: 7.94

Exercise: Please do the same for Nc1ncc(-c2ccc(C(F)(F)F)c(S(N)(=O)=O)c2-c2nnn[nH]2)cc1F [Example 476] as well.
Solution: 8.40

Exercise: Please do the same for NS(=O)(=O)c1cccc(C(=O)O)c1-c1nn[nH]n1 [Example 297] as well.
Solution: 4.70

Exercise: Please do the same for NS(=O)(=O)c1nccc(N2CCC3(CCNCC3)CC2)c1-c1nn[nH]n1 [Example 245] as well.
Solution: 5.01

Exercise: Please do the same for NC(=O)C1CCN(Cc2ccc(-c3cccc(S(N)(=O)=O)c3-c3nnn[nH]3)cc2)C1 (stereo not shown) [Example 337] as well.
Solution: 7.16

Exercise: Please do the same for Cc1ccc(-c2cc(-c3cccnc3)cc(S(N)(=O)=O)c2-c2nn[nH]n2)cc1 [Example 293] as well.
Solution: 7.06

Exercise: Please do the same for CN(C)[C@@H]1CCN(Cc2ccc(-c3cccc(S(N)(=O)=O)c3-c3nnn[nH]3)cc2)C1 [Example 347] as well.
Solution: 6.73

Origin of measurements: patent US9708336B2
